experiment: Phase I/IIa study; format: in vivo, human; conditions: human, skin (punch biopsy) / plasma, topical, 0.15 % cream
experimentalEndpoint: Kp at 24 h
Answers are plain numbers.

Dear colleague, please send me the reported Kp at 24 h for O=C(Nc1c(Cl)cncc1Cl)c1ccc(OC(F)F)c(OCC2CC2)c1 [roflumilast] when you can. 126

====

experiment: Phase I/IIa study; type: in vivo, human; details: human, skin (punch biopsy) / plasma, topical, 0.5 % cream
experimentalEndpoint: Kp at 24 h
Give bare numbers.

Dear colleague, please send me the reported Kp at 24 h for O=C(Nc1c(Cl)cncc1Cl)c1ccc(OC(F)F)c(OCC2CC2)c1 when you can. 61.8
